# System: NCI-H226
# assay_procedure: NCI tumour cell line growth inhibition, 48 h
Active and inactive are the calls of the source. Cut-off read from the data, not from the text of the source: active = GI50 up to about 1.1 µM and inactive = higher.
This listing pairs compounds with measured GI50.

compound	GI50
C[C@@]1(O)C[C@@H](N2C(=O)O[C@@H](c3ccccc3)[C@H]2c2ccccc2)[C@@H]1COCc1ccccc1	20.2 µM (inactive)
O=c1n(-c2ccc(Cl)c(Cl)c2)c(=O)n(-c2ccc(Cl)c(Cl)c2)c(=O)n1-c1ccc(Cl)c(Cl)c1	2.82 µM (inactive)
N#CC(C(=O)/C(=N\Nc1nc(S)nn1N)C(C#N)c1ccc(Cl)cc1)c1ccc(Cl)cc1 (stereo not given)	> 100 µM (inactive)
C=C1C(=O)O[C@@H]2C[C@]3(C)CC[C@]4(C)[C@H](CC[C@@H]5[C@@]6(C)CCC(=O)C(C)(C)[C@@H]6CC[C@]54C)[C@H]3[C@H]12 [OCHRACEOLIDE A]	20 µM (inactive)
Clc1ccc2c(c1)N(CCCN1CCCC13CCCCC3)c1ccccc1S2	35.3 µM (inactive)
Cn1c(-c2cccs2)cc(-c2cccs2)c1-c1ccco1	> 100 µM (inactive)
O=C(O)c1ccccc1CC1Cc2ccccc2C1	> 100 µM (inactive)
CC(=O)NCC1OC2COC(c3ccccc3)OC2C2N=C(c3ccccc3)OC12 (stereo not given)	67.5 µM (inactive)
O=C1CCCC2=C1CC1=C(CCCC1=O)N2c1cccc2ccccc12	> 100 µM (inactive)
Cc1ccc(/N=N/C(=O)NNc2ccc(C)c([N+](=O)[O-])c2)cc1[N+](=O)[O-]	51.9 µM (inactive)
CC(C)Cc1ccc(C(C)/C=C2\CCC(CN3CCCCC3)C2=O)cc1 (stereo not given)	14.7 µM (inactive)
CCOC(=O)P(=O)(O)c1ccc(N(C)Cc2ccccc2)cc1	> 100 µM (inactive)
COc1cc(CSc2ccc(O)cc2)cc(O)c1O	23.4 µM (inactive)
Nn1c(CCCCCCCCc2nnc(COc3ccc(Cl)cc3)n2N)nnc1COc1ccc(Cl)cc1	> 100 µM (inactive)
Fc1cc(-c2ncc(Cl)cc2Cl)c2cccccc1-2	> 100 µM (inactive)
O=C(O)CSc1nnc2c3ccccc3c3ccccc3c2n1	85.7 µM (inactive)
Cc1nn(-c2ccccc2)c2nc3c(c(C)nn3-c3ccccc3)c(-c3ccccc3Br)c12	> 100 µM (inactive)
NC(=S)NS(=O)(=O)c1ccc(Cl)cc1	> 100 µM (inactive)
O=C(/C=C/c1ccc(-c2ccccc2)cc1)c1ccccc1	22.1 µM (inactive)
C[C@H]1CC[C@@]2(OC1)O[C@H]1C[C@H]3[C@@H]4CC[C@@H]5C[C@@H](OC6OC(CO)C(O)C(O)C6OC6OC(CO)C(O)C(O)C6O)CC[C@]5(C)[C@H]4CC[C@]3(C)[C@H]1[C@@H]2C (stereo not given in full)	2.34 µM (inactive)
Cc1cc(N(CCC#N)CCC#N)ccc1C(/N=N\c1ccc(C(=O)O)cc1)=N\NC(=O)c1cc(Cl)ccc1O	18.7 µM (inactive)
Cc1ccc(-c2c(C#N)c(-c3ccccc3)n(NS(=O)(=O)c3ccc(C)cc3)c(=O)c2C#N)cc1	74.3 µM (inactive)
Nc1nc(Cl)cc(NCC2(CO)CCC2)n1	> 100 µM (inactive)
CN1CC2CN(Cc3ccccc3)CCN2c2cccnc21 (stereo not given)	57.7 µM (inactive)
O=C(CCl)Nc1cc(Cl)c(Cl)cc1Cl	1.01 µM (active)
O=C(Nc1cc2c(=O)[nH]c3ccccc3c2oc1=O)c1cnccn1	> 100 µM (inactive)
N#Cc1c(O)c2ccccc2[nH]c1=O	> 100 µM (inactive)
COC1OC(OC)C2C(c3c(C)cc(C)cc3C)=NOC12 (stereo not given)	> 100 µM (inactive)
COc1ccc(/C=C\c2cc(OC)c(O[Si](C)(C)C(C)(C)C)c(OC)c2)cc1	31.8 µM (inactive)
CO/N=C(\C(=O)N(C)n1cnnc1)c1csc(NC(c2ccccc2)(c2ccccc2)c2ccccc2)n1	> 10 µM (inactive)
CC1=C(/C(C)=N/NS(=O)(=O)c2ccc(C)cc2)Sc2ccccc2N1	> 100 µM (inactive)
Cc1cccc(CC(C)(C)C)c1NC(=O)C(=O)C(C(=O)c1ccc2ccccc2c1)C1OC(=O)c2ccccc21 (stereo not given)	2.4 µM (inactive)
COc1cc(-c2c(C)c(C)nc(OC)c2C#N)cc(OC)c1OC	24.9 µM (inactive)
COc1cc2c(cc1OCCCOS(C)(=O)=O)N=C[C@@H]1CCCN1C2=O	> 100 µM (inactive)
NS(=O)(=O)c1nnc(NC(=O)CCC(=O)O)s1	> 100 µM (inactive)
O=C(Nc1nc(C23CC4CC(CC(C4)C2)C3)cs1)c1cc2cc(Br)cc(Br)c2oc1=O	33.2 µM (inactive)
N#CC(NNC(=O)Cc1ccccc1)c1ccc([N+](=O)[O-])cc1 (stereo not given)	> 100 µM (inactive)
CSC1=C(C)S/C(=C\c2ccc(/C=C3\SC(C)=C(SC)S3)cc2)S1	92.5 µM (inactive)
CC(=O)NNC1=NN(C(C)=O)C2(S1)C(=O)Nc1ccc(C)cc12 (stereo not given)	> 100 µM (inactive)
Cc1ccc(C)n1-n1c(-c2ccccc2)n[nH]c1=O	> 100 µM (inactive)

====

# Test system: SK-MEL-2
# assay_procedure: NCI tumour cell line growth inhibition, 48 h
The source made the active and inactive calls. No stated cut-off is given here; in the data, active = GI50 up to about 1.1 µM and inactive = higher.
Entries annotated with measured GI50
property_label: GI50

In [3]: df
Out[3]:
                                   molecule  property_label               result
0  N#Cc1ccc(C(C2C(=O)NC(=O)NC2=O)C2C(=O)NC(=O)NC2=O)cc1            GI50  > 100 µM (inactive)
1  N#CC1CC(c2ccccc2)Nc2cc(Cl)ccc2N1 (stereo unspecified)            GI50   29.1 µM (inactive)
2  O=c1[nH]c(=O)n(C2CC(O)C(CO)O2)c2nc3cc4ccccc4cc3nc12 (stereo unspecified)            GI50  > 100 µM (inactive)
3  CCC(C)C(NC(=O)c1cccc2c(=O)c3ccccc3[nH]c12)C(=O)O (stereo unspecified)            GI50  > 100 µM (inactive)
4  CCOC(=O)C1C/C(C)=C(/C)SCCCS1 (stereo unspecified)            GI50  > 100 µM (inactive)
5  CCOC(=O)C(=O)C(CCC(=O)c1ccc2ccccc2c1O)C(=O)OCC (stereo unspecified)            GI50  > 100 µM (inactive)

====

# System: SK-MEL-2
# assay_procedure: NCI tumour cell line growth inhibition, 48 h
Active and inactive are the calls of the source. No stated cut-off is given here; in the data, active = GI50 up to about 1.1 µM and inactive = higher.
Classes used: 1 for active, -1 for inactive

>>> df
                                    molecule  qualitative_label
 0  COC(=O)CC1c2ccccc2N2C(=O)Cc3c([nH]c4ccccc34)C12 (stereo unspecified)                 -1
 1           Cc1ccc2c(O)cc(-c3ccc(C)s3)nc2n1                 -1
 2  N#Cc1c(N)nc(Sc2ccccc2N)c(C#N)c1-c1ccc(Cl)cc1                 -1
 3                      COCC(=O)CP(=O)(OC)OC                 -1
 4  COc1ccc2nc(N/N=C/C(C)=N/Nc3cc(C)c4cc(OC)ccc4n3)cc(C)c2c1                 -1
 5  Cc1cc2nc3c(C#N)c(-c4ccccc4)cc(Nc4cccc(C(F)(F)F)c4)n3c2cc1C                 -1
 6  C#CCC(O)c1ccccc1C(O)CC#C (stereo unspecified)                 -1
 7  CC1C(c2ccc(F)cc2)c2cc3c(cc2OC1N1CCCC1)OCO3 (stereo unspecified)                 -1
 8  CN(Cc1cnc2nc(N)nc(N)c2n1)c1ccc(C(=O)NC(CCC(=O)O)C(=O)O)c2ccccc12 (stereo unspecified)                  1
 9         CSc1c(C#N)c(=O)[nH]c2[nH]nc(C)c12                 -1
10  C=CCN(N=O)C(=O)N(CCCCC(NC(C)=O)C(=O)NCc1ccccc1)Cc1ccccc1 (stereo unspecified)                 -1

====

# Test system: MDA-MB-435
# assay_procedure: NCI tumour cell line growth inhibition, 48 h
The source made the active and inactive calls. Cut-off read from the data, not from the text of the source: active = GI50 up to about 1.1 µM and inactive = higher.
Recorded measurements of GI50, one per entry
property_label: GI50

                                   compound               result
0  CCOC(=O)C1C/C(C)=C(/C)SCCCS1 (centres undefined)  > 100 µM (inactive)
1  COc1ccc(N2C(=O)C3c4[nH]c5ccc(F)cc5c4C4CCC(c5ccccc5)CC4C3C2=O)cc1 (centres undefined)   16.6 µM (inactive)
2  CCn1c(=O)c2c3ccc(OC(C)=O)cc3[nH]c2c2ccc(OC(C)=O)cc21     41 µM (inactive)
3  COc1cc2c(cc1OC)C1=Cc3ccc(OC)c(OC)c3C(C#N)N1CC2 (centres undefined)   25.9 µM (inactive)
4  [B].c1ccc([Si](OCCN2CC2)(c2ccccc2)c2ccccc2)cc1   13.8 µM (inactive)
5  COc1ccc2nc3cc(Cl)ccc3c(NCCCCCC(=O)NC(COc3cnc4c(ccc5cccnc54)c3)COc3cnc4c(ccc5cccnc54)c3)c2c1   18.5 µM (inactive)
6  BrCCCCCOc1ccc(-c2c3ccccc3c(-c3ccc(OCCCCCBr)cc3)c3ccccc23)cc1  > 100 µM (inactive)
7  CC1(C)C2CCC1(C)[C@H](n1c(=O)n([C@@H]3CC4CCC3(C)C4(C)C)c(=O)n([C@@H]3CC4CCC3(C)C4(C)C)c1=O)C2   76.7 µM (inactive)
8  Cc1ccc(-c2c(C#N)c(-c3ccccc3)c(C#N)c(=O)n2NS(=O)(=O)c2ccc(C)cc2)cc1   48.9 µM (inactive)
